- study.target: pendrin (Homo sapiens)
- Sequence (O43511 whole entry): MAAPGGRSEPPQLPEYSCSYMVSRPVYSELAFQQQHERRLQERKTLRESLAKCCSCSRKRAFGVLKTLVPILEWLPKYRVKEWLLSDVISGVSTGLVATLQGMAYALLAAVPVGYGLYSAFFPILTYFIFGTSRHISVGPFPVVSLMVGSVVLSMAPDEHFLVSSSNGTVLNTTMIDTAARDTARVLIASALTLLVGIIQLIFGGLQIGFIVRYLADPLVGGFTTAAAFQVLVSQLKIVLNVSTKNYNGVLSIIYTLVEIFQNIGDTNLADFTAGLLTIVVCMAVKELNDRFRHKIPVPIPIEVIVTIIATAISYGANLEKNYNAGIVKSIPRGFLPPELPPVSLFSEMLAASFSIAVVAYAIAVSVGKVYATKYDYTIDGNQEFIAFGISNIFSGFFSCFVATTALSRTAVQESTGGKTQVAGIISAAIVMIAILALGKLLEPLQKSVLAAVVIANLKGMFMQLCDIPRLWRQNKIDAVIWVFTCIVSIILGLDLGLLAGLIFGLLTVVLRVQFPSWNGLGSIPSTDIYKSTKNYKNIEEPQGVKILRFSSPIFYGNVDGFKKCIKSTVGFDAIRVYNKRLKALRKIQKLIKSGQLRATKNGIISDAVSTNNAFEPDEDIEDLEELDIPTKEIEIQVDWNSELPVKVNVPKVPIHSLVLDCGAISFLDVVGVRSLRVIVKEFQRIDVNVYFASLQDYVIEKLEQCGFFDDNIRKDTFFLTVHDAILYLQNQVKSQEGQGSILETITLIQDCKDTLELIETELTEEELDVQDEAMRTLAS
- protocol: YFP (EYFP-HIF) fluorescence quenching assay of pendrin-mediated Cl− exchange (SCN−, I−, NO3−) in FRT cells; high-throughput screen
- Assay type: cell-based
- Design: expressed in transfected cells
- cond: FRT, 25 μM; read-out: Inh. (%), percentage inhibition of human pendrin
Label Met when inhibition at 25 µM >= 50%; otherwise Not met.

Reference set (3 entries):
> print(dat)
                                   compound  group.label
1  Cc1ccc(NC(=O)N2CCc3c(c(COc4ccc(F)cc4)nn3C)C2)cc1C          Met
2  Cn1nc(COc2ccc(F)cc2)c2c1CCN(C(=O)Nc1cccc(C(F)(F)F)c1)C2          Met
3  Cc1cc(-c2cc(S(=O)(=O)NC3CCCc4ccccc43)c(C)s2)[nH]n1 (stereo not shown)          Met

Query: Evaluate Cc1ccc(NC(=O)N2CCc3c(c(COCc4ccc(F)cc4Cl)nn3C)C2)cc1C : inhibition at 25 µM at minimum 50%?
Result: Not met

Query: Determine whether measured inhibition at 25 µM meets or exceeds 50% for Cn1nc(COc2cccc(F)c2)c2c1CCN(C(=O)Nc1cccc(Cl)c1)C2
Result: Met
